Cited source: patent US20250241868A1

Assay system: human recombinant thioredoxin reductase (TR) (Homo sapiens)
Sequence (Q16881 151-649): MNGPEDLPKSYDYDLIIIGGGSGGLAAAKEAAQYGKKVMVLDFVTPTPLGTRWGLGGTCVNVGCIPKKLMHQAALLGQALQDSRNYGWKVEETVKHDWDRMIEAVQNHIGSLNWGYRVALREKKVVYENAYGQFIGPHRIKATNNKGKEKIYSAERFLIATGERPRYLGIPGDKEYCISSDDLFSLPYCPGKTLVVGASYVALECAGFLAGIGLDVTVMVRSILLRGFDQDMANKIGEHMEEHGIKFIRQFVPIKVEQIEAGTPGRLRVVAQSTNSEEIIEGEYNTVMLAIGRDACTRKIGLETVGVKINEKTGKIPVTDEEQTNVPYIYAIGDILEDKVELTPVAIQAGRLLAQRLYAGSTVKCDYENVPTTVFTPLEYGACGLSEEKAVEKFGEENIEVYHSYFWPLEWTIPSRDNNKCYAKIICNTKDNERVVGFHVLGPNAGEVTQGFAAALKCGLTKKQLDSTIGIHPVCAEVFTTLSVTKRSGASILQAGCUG
Experimental protocol: Inhibition of human recombinant TR activity (Cayman TR assay kit)
pIC50: −log10 of the molar value.

# Smiles input, Assay system, pIC50
rows = [
    ("O=[N+]([O-])C(Br)(CO)CO", "human recombinant thioredoxin reductase (TR) (Homo sapiens)", 4.68),
]
